Reported pIC50 values follow for various binders
- target.under.test: T1, SARS-CoV-2 RBD-mFc (SARS-CoV-2, UniProt P0DTC2 319-541)
- T1 construct: range 319-541
- assay.overview: flow cytometry competition: RBD-mFc on HEK293E/ACE2 cells
pIC50: −log10 of the molar value.
observable: pIC50

{"binder": "SA4053 (antibody, V domains shown) VH: EVQLVQSGGGLVQPGGSLRLSCADSGFTFSSYWMSWVRQVPGKGLEWVANIKQDGSEKYYVDSVKGRFTISRDNAKNSLYLQMNSLRAEDTAVYYCARDVGRGYCSSTSCYRFGGREDFFDYWGQGTLVTVSS VL: QLVLTQPPSVSAAPGQRVTISCSGSFSNVGNNFVSWYRHLPGTAPELLIYDNNQRPSGIPDRFSASKSGTSATLAITGLHTGDEADYYCGTWDTSLSGVVFGGGTKLTVL", "endpoint.result": 8.66}
{"binder": "SA3856 (antibody, V domains shown) VH: QMQLVESGGGLIQPGGSLRLSCAASGFTVTSAYMSWVRQAPGKGLEWVSIIYGGGSTYYADSVKGRFTISRDNSKNTLYLQMNSLRAEDTAVYYCTGPYPGRYDYWGRGTLVTVSS VL: DIQMTQSPSSLSASVGDRVIITCRASQDIRTSLAWFQQRLGEAPRSLIYDASSLQNGVPSKFRGSGSGTDFTLTISSLQPEDFATYYCQQYKTVPLTFGGGTKVEIK", "endpoint.result": 8.57}
{"binder": "SA3779 (antibody, V domains shown) VH: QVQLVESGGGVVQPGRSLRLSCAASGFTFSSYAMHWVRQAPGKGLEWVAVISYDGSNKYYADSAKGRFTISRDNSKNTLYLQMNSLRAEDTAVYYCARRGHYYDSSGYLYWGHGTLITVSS VL: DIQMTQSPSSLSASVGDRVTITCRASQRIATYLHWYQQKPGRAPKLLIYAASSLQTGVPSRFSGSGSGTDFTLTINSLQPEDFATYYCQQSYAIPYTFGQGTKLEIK", "endpoint.result": 8.55}
